Target: μ-opioid receptor (Homo sapiens)
Sequence (P35372 whole entry, species assumed): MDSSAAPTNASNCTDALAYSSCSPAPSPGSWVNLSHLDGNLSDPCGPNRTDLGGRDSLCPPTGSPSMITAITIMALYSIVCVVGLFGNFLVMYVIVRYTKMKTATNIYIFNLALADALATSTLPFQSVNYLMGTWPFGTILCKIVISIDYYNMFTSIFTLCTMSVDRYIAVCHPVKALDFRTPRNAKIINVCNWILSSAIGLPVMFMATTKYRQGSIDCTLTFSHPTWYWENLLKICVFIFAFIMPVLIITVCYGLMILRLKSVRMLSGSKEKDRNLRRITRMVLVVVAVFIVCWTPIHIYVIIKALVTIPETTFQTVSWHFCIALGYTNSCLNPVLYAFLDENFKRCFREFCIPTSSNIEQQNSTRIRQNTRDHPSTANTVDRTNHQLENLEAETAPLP
Assay: μ-opioid receptor [35S]GTPγS functional assay, HEK-293 or CHO cells
Type: biochemical
Settings: HEK-293 or CHO cells; relative to DAMGO
Metric: Emax (%)
Write down the numeric answer in % and omit the unit.

Query: Fill blank: measured Emax of the compound CN1CC[C@]23C[C@H](OCCO)C[C@@H](O)[C@@H]2[C@H]1Cc1ccc(O)cc13 [Compound 121] is ____.
Result: 16.6

Query: Fill blank: measured Emax of the compound CC(C)C(=O)N[C@H]1CC[C@]23CCN(CC4CC4)[C@H](Cc4ccc(O)cc42)[C@]3(O)C1 [Compound 46] is ____.
Result: 7.67

Query: Fill blank: measured Emax of the compound CC(=O)N[C@H]1C[C@@]2(O)[C@H]3Cc4ccc(O)cc4[C@@]2(CCN3CC2CC2)C[C@H]1O [Compound 55] is ____.
Result: 1

Query: Fill blank: measured Emax of the compound NCCCCN[C@@H]1CC[C@@]2(O)[C@H]3Cc4ccc(O)cc4[C@@]2(CCN3CC2CC2)C1 [Compound 14] is ____.
Result: 8.67

Query: Fill blank: measured Emax of the compound CCC(=O)N[C@H]1C[C@@]2(O)[C@H]3Cc4ccc(O)cc4[C@@]2(CCN3CC2CC2)C[C@@H]1O [Compound 57] is ____.
Result: 1.5

* * *

Target: UniProt:P35372
Experiment: μ-opioid receptor [35S]GTPγS functional assay, U-2 OS cells
Type: biochemical
Set-up: host or cells: U-2 OS cells
Provide the recorded log10(EC50) for the entries that follow.
Scale: decimal log of EC50, EC50 in nM.

Query: Fill blank: measured log10(EC50) of the compound "CC(C)CCC(=O)N[C@H]1C[C@@]2(O)[C@H]3Cc4ccc(O)cc4[C@@]2(CCN3CC2CC2)C[C@H]1O" is ____.
Result: 1.79

Query: Fill blank: measured log10(EC50) of the compound "COc1ccc2c(c1)[C@]13CCN(CC4CC4)[C@H](C2)[C@]1(O)C[C@@H](NCC(C)C)[C@@H](O)C3" is ____.
Result: 2.70

Query: Fill blank: measured log10(EC50) of the compound "CC(C)CN[C@@H]1C[C@@]2(O)[C@H]3Cc4ccc(O)cc4[C@@]2(CCN3CC2CC2)C[C@@H]1O" is ____.
Result: 0.58

Query: Fill blank: measured log10(EC50) of the compound "COc1ccc2c(c1)[C@]13CCN(CC4CC4)[C@H](C2)[C@]1(O)CC[C@@H](CC(=O)O)C3" is ____.
Result: 2.76

Query: Fill blank: measured log10(EC50) of the compound "CC(C)CN[C@H]1CC[C@]23CCN(CC4CC4)[C@H](Cc4ccc(O)cc42)[C@]3(O)C1" is ____.
Result: 0.45

Query: Fill blank: measured log10(EC50) of the compound "CC(C)C(=O)N[C@H]1C[C@@]2(O)[C@H]3Cc4ccc(O)cc4[C@@]2(CCN3CC2CC2)C[C@H]1O" is ____.
Result: 1.91

Query: Fill blank: measured log10(EC50) of the compound "CC(C)CCCC(=O)N[C@H]1C[C@@]2(O)[C@H]3Cc4ccc(O)cc4[C@@]2(CCN3CC2CC2)C[C@H]1O" is ____.
Result: 1.64

Query: Fill blank: measured log10(EC50) of the compound "O=C(N[C@H]1C[C@@]2(O)[C@H]3Cc4ccc(O)cc4[C@@]2(CCN3CC2CC2)C[C@H]1O)C1CC1" is ____.
Result: 2.05

Query: Fill blank: measured log10(EC50) of the compound "N=C(N)NCCN[C@@H]1CC[C@@]2(O)[C@H]3Cc4ccc(O)cc4[C@@]2(CCN3CC2CC2)C1" is ____.
Result: 1.51
